Biological target: 5L hepatoma cell line (Rattus norvegicus)
Assay: Survival of rat 5L hepatoma cells after 48 hrs by MTS reduction assay
pIC50: −log10 of the molar value.
READOUT_KIND: pIC50

Item Oc1[nH]c2c(Br)cccc2c1C1=Nc2ccccc2/C1=N\OCCN1CCCC1 has what recorded pIC50? < 4.52
